- TESTED_SYSTEM: T1, full length human tau protein 2N4R (hT40) (human, UniProt P10636 1-758)
- T1 construct: recombinant; also called T441
- T1 sequence (P10636 other isoform, or with tags, fused parts or gaps limits assumed): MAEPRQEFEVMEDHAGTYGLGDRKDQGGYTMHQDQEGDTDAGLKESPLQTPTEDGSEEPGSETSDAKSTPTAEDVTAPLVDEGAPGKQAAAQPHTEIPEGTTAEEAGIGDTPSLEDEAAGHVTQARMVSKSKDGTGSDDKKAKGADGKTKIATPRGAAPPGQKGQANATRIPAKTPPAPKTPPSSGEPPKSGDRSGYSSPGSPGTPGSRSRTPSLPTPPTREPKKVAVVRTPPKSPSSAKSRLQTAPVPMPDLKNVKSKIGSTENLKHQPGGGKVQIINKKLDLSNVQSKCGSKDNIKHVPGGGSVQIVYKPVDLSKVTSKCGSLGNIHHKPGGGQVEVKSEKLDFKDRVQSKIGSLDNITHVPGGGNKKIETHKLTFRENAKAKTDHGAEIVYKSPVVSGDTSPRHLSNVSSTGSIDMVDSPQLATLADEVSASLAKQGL
- TEST_DETAILS: SPR, summary table
PROPERTY: pKd
The read-out pKd is expressed as -log10 of concentration in moles per litre.

Examples with answers:
{"BINDER": "CA4 scAb (scFv, not shown: small tags and cut ends, scAb) scFv: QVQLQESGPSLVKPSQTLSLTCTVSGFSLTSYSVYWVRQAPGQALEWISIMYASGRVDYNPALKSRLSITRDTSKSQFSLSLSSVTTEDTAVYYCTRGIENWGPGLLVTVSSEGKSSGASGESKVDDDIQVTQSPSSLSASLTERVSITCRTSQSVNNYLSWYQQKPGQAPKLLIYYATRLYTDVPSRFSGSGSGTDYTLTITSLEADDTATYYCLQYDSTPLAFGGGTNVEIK", "pKd": 8.44}
{"BINDER": "CB7 scAb (scFv, not shown: small tags and cut ends, scAb) scFv: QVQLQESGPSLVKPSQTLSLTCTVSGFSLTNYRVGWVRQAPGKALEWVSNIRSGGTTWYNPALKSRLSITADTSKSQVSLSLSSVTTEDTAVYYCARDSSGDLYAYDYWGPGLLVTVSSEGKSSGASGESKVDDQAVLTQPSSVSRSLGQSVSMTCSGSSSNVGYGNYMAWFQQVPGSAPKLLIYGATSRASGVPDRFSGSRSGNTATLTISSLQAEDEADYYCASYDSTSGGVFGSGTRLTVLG", "pKd": 8.28}

Record S1G2 scAb (scFv, not shown: small tags and cut ends, scAb) scFv: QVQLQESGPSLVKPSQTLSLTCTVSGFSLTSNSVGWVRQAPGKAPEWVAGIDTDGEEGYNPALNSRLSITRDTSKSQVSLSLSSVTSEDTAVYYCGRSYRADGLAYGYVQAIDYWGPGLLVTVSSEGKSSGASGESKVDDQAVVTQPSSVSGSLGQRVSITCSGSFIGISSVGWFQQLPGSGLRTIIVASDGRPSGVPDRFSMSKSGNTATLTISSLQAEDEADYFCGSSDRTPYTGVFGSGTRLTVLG , field pKd: 9.77

Provenance of the data: patent US20250355001A1
